Data provenance: the NIST ThermoML archive (doi:10.1021/je0604378)

Can you tell me mass density for the items I'm about to list?
# study conditions: 298.15 K; 101.33 kPa; Liquid
Could you give me the number in kg/m3? Just the number is fine.

IN: # mass density lookup, item `CCCCCCCO`
OUT: 818.796

IN: Another molecule: `CCCCCCCCO`
OUT: 821.636

IN: Another molecule: `CCCCCCCCCO`
OUT: 824.239

IN: Another molecule: `CCCCCCCCCCO`
OUT: 826.37

====

# study conditions: 313.15 K; 101.33 kPa; Liquid
endpoint name: mass density (kg/m3)
Could you give me the number in kg/m3? Just the number is fine.

IN: # mass density lookup, item CCCCCCCCCO [nonan-1-ol]
OUT: 813.868

IN: Another compound: CCCCCCCCCCO [decan-1-ol]
OUT: 816.12

IN: Another compound: CCCCCCCCO [octan-1-ol]
OUT: 811.171

IN: Another compound: CCCCCCCO [heptan-1-ol]
OUT: 808.158

====

# study conditions: 318.15 K; 101.33 kPa; Liquid
± gives the expanded uncertainty stated by the source.
Can you tell me mass density for the items I'm about to list?
Number first, unit second: that is the form wanted.

IN: # mass density lookup, item CCCCCCCCCCO [decan-1-ol]
OUT: 812.634 ± 0.98 kg/m3

IN: Another molecule: CCCCCCCO [heptan-1-ol]
OUT: 804.546 ± 1 kg/m3

IN: Another molecule: CCCCCCCCCO [nonan-1-ol]
OUT: 810.376 ± 0.98 kg/m3

IN: Another molecule: CCCCCCCCO [octan-1-ol]
OUT: 807.654 ± 0.99 kg/m3

====

# study conditions: 308.15 K; 101.33 kPa; Liquid
endpoint name: mass density (kg/m3)
Could you give me the number in kg/m3? Just the number is fine.

IN: # mass density lookup, item `CCCCCCCCO`
OUT: 814.675

IN: Another molecule: `CCCCCCCCCO`
OUT: 817.345

IN: Another molecule: `CCCCCCCO`
OUT: 811.724

IN: Another molecule: `CCCCCCCCCCO`
OUT: 819.57

====

# study conditions: 293.15 K; 101.33 kPa; Liquid
Numbers after ± are expanded uncertainties.
endpoint name: mass density
Number first, unit second: that is the form wanted.

IN: # mass density lookup, item `CCCCCCCCO`
OUT: 825.048 ± 0.94 kg/m3

IN: Another molecule: `CCCCCCCCCO`
OUT: 827.66 ± 0.93 kg/m3

IN: Another molecule: `CCCCCCCCCCO`
OUT: 829.758 ± 0.93 kg/m3

IN: Another molecule: `CCCCCCCO`
OUT: 822.297 ± 0.95 kg/m3
